- Test system: L929
- METHOD: Cytotoxicity against mouse L929 cells after 18 hrs by MTT assay
- Assay type: functional, cell-based
- TEST CONTEXT: L929, 18 h
Provide the recorded IC50 for the entries that follow.
One number for each entry, in µM.

>  <STRUCTURE SMILES STRING>
CC1=C([Te]c2ccccc2)C(=O)c2ccccc2C1=O

>  <TEST TARGET>
L929

>  <ENDPOINT VALUE>
11

$$$$

API: value(readout= IC50, system= L929, query= O=C1C([Te]c2ccccc2)=C([Te]c2ccccc2)C(=O)c2ccccc21 )
5.8
